# Test system: T-47D breast
# experiment: NCI tumour cell line growth inhibition, 48 h
valueType: TGI

Assign TGI to the following record: Clc1ccc(-c2cn3c(nc4ccccc43)c(/C=C/c3ccco3)n2)cc1
> 100 µM

Assign TGI to the following record: COC1=CC(=O)CC(C)C12Oc1c(Cl)c(OC)cc(OC)c1C2=O (stereo not drawn)
> 100 µM

Assign TGI to the following record: CC1(C)CCC(C)(C)C1C(=O)NC(O)C(=O)O (stereo not drawn)
> 100 µM

* * *

# System: HOP-62 NSCLC
# experiment: NCI tumour cell line growth inhibition, 48 h
Give measured log10 of TGI for each item. Keep answers brief.
Log10 applied to TGI; unit prior to transform: µM.

Assign log10 of TGI to the following record: N=c1c2c(=S)n(-c3ccccc3)c(=S)n(-c3ccccc3)c2nc(SCCN2CCCC2)n1-c1ccccc1
1.09

Assign log10 of TGI to the following record: COC(=O)c1c(O)ccc2[nH]c3c(O)c4ccccc4cc3c12
1.67

Assign log10 of TGI to the following record: Cc1ccc(C2=C(C#N)C(N)OC3=C2COc2ccccc23)cc1 (stereo not drawn)
1.54

Assign log10 of TGI to the following record: CCC(C)Nc1ccc(N)cc1 (stereo not drawn)
1.17

Assign log10 of TGI to the following record: O=S(=O)(NNc1ccccc1)c1ccccc1
1.51

Assign log10 of TGI to the following record: CCC(C)[C@H](NC(=O)Nc1cc(C(F)(F)F)cc(C(F)(F)F)c1)C(=O)N[C@@H](Cc1cn(C)cn1)C(=O)OC (stereo partly drawn)
0.26

* * *

Give measured TGI for each item. Keep answers brief.
# System: SK-MEL-28 melanoma
# experiment: NCI tumour cell line growth inhibition, 48 h

Report value: TGI, system: SK-MEL-28 melanoma, compound: CC(=O)NC(C)(C)C1CCC(C)=C(c2ccccc2)C1 (stereo not drawn)
> 100 µM

Report value: TGI, system: SK-MEL-28 melanoma, compound: COc1ccc(N=NC(=O)NC(CC(C)C)C(N)=O)cc1 (stereo not drawn)
> 100 µM

Report value: TGI, system: SK-MEL-28 melanoma, compound: Cc1cccc(C2SCc3nc4ccccc4n32)c1 (stereo not drawn)
65.7 µM

Report value: TGI, system: SK-MEL-28 melanoma, compound: CC(O)(P(=O)(O)O)P(=O)(O)OCC(O)CN1CCOCC1 (stereo not drawn)
> 100 µM

Report value: TGI, system: SK-MEL-28 melanoma, compound: CCN(CC)CCCNc1cc(OC)cc2nc3cc(Cl)ccc3nc12
3.21 µM

Report value: TGI, system: SK-MEL-28 melanoma, compound: O=C(N/N=C\c1ccc(N(CCCl)CCCl)cc1[N+](=O)[O-])c1cccnc1
> 100 µM

Report value: TGI, system: SK-MEL-28 melanoma, compound: CC1C(C)N(C(=O)CCl)c2ccccc2N1C(=O)CCl (stereo not drawn)
2.9 µM

Report value: TGI, system: SK-MEL-28 melanoma, compound: CCOP(=O)(OCC)C1CCCOC1=O (stereo not drawn)
> 100 µM

Report value: TGI, system: SK-MEL-28 melanoma, compound: CCc1cccc(C)c1NC(=O)C(=O)CC(=O)c1ccc(Cl)s1
> 100 µM

Report value: TGI, system: SK-MEL-28 melanoma, compound: COC(=O)[C@H](Cc1cnc[nH]1)NC(=O)[C@@H](NC(=O)Nc1cc(C(F)(F)F)cc(C(F)(F)F)c1)C(C)C
29.2 µM

Report value: TGI, system: SK-MEL-28 melanoma, compound: Cc1oc2c(c1C)S(=O)(=O)C(C#N)=C(N(C)C)N2
> 100 µM

Report value: TGI, system: SK-MEL-28 melanoma, compound: COC1=CC2(CC(OC)=C1OC)OC21COc2ccccc2C1=O (stereo not drawn)
> 100 µM

Report value: TGI, system: SK-MEL-28 melanoma, compound: CCOC(=O)C(Cc1ccc(OC(=O)OC(C)(C)C)cc1)NC(=O)OC(C)(C)C (stereo not drawn)
> 100 µM
